Target: T1, SNTB1, Q13884
T1 sequence (Q13884 107-205, limits assumed, looked up): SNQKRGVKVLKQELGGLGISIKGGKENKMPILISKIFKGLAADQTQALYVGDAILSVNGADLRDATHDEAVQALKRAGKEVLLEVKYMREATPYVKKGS
Assay: holdup assay
Set-up: key: below the threshold = too weak to quantify, mostly under pKd 3.1 to 4
Settings: plain residues with an end cap or a label only (N-terminal biotin on a linker: ado-ado)
Listing: pKd of selected binders
measured-parameter: pKd

>>> quantitative_result("RRISSLESEV [GRIN2C, Q14957]")
4.64
>>> quantitative_result("QGPVETESVV [SLC45A4, Q5BKX6]")
4.94
>>> quantitative_result("LPHPHSTTRV [NLGN2, Q8NFZ4]")
4.22
>>> quantitative_result("LGRSTPQSEV [DGKH, Q86XP1]")
4.03
>>> quantitative_result("SSALYGESDL [ACTN2, P35609]")
4.05
>>> quantitative_result("TACCHSETVV [TGFA, P01135]")
4.95
>>> quantitative_result("PRAEAEDSFL [PDGFRB, P09619]")
3.64
